Exercise: state measured pIC50 for each of the molecules provided.
EXPERIMENTAL TARGET: Recombinant human HDAC8 (Homo sapiens)
Construct: purchased Enzo Life Sciences BML-SE145-0100
Sequence (Q9BY41 1-377): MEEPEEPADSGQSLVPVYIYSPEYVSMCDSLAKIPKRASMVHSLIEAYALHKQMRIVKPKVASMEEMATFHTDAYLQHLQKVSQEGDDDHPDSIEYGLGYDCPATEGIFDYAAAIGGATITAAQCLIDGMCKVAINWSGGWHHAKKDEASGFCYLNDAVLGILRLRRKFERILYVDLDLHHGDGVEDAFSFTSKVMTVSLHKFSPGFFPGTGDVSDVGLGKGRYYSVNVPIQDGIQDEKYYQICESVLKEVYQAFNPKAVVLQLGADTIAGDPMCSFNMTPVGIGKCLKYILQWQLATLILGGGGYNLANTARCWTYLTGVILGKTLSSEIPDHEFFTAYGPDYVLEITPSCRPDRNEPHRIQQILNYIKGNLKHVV
TEST DESCRIPTION: Human HDAC enzyme inhibitor Fluor-de-Lys assay, HDAC8
Format: biochemical
Give bare numbers, as −log10 of the molar value.

CCC(=O)CCCCC[C@H](NC(=O)[C@H]1CC12CCN(C)CC2)c1ncc(-c2ccc3c(=O)n(C)ccc3c2)o1 [Compound 137] | 4.47
CCC(=O)CCCCC[C@H](NC(=O)C1CC12CCN(C)C(C)(C)C2)c1ncc(-c2ccc3nc(C)ccc3c2)[nH]1 (single isomer, unassigned) [Compound 133] | 5.69
CCC(=O)CCCCC[C@H](NC(=O)[C@H]1CC12CCN(C)CC2)c1[nH]c(-c2ccc(F)cc2)nc1Cl [Compound 91] | 4.50
CN1CCC2(CC1)C[C@@H]2C(=O)N[C@@H](CCCCCC(=O)CC(F)(F)F)c1ncc(-c2ccc(F)cc2)[nH]1 [Compound 68] | 5.36

// next entry
Ask: Need pIC50 of CCC(=O)CCCCC[C@H](N)c1ncc(-c2ccc3nc(C)ccc3c2)[nH]1 [Compound 178] , thanks.
Reply: 5.49

* * *

EXPERIMENTAL TARGET: Recombinant human HDAC1 (Homo sapiens)
Construct: FLAG (C); made in house
Sequence (Q13547 whole entry): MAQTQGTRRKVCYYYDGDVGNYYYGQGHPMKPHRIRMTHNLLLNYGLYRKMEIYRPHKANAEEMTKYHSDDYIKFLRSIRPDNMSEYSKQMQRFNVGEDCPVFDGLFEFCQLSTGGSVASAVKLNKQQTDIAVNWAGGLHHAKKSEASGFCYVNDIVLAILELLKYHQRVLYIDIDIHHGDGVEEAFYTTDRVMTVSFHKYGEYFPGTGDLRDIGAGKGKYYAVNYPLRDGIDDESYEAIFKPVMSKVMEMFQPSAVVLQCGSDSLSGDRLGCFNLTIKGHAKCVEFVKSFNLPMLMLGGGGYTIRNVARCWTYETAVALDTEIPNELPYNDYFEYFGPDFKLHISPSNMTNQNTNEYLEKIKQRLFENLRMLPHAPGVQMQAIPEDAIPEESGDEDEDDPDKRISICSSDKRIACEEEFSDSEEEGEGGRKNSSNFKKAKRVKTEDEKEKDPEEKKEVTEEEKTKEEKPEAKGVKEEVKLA
TEST DESCRIPTION: Human HDAC enzyme inhibitor Fluor-de-Lys assay, HDAC1
Type: biochemical
RUN PARAMETERS: recombinant human HDAC1, Fluor-de-Lys assay
VALUE TYPE: pIC50
Give bare numbers, as −log10 of the molar value.

# example entries with known answers
CCC(=O)CCCCC[C@H](NC(=O)C1=NOC2(CCN(CC)CC2)C1)c1ncc(-c2cc3ccc(=O)n(C)c3cc2OC)o1 [Compound 235] | 9.15
CCC(=O)CCCCC[C@H](NC(=O)C1=NOC2(CCN(CC)CC2)C1)c1ncc(-c2cc3ccc(C)nc3cc2F)o1 [Compound 269] | 8.29

Below is a list of compounds. For each, state its recorded pIC50.
1. CCC(=O)CCCCC[C@H](NCC1CN(C)C1)c1ncc(-c2cc3ccc(C)nc3cc2OC)o1 [Compound 401]
2. CCCn1cc(-c2[nH]c(-c3ccc(F)cc3)nc2C(CCCCCC(=O)CC)NC(=O)C2CC23CCN(CC)CC3)cn1 (centres unmarked) [Compound 254]
3. CCC(=O)CCCCC[C@H](NC(=O)[C@H]1CC12CCN(C)CC2)c1ncc(-c2ccnc(N3CCOCC3)c2F)[nH]1 [Compound 261]
4. CCC(=O)CCCCC[C@H](NC(=O)[C@H]1CC12CCN(C)CC2)c1ncc(-c2ccc(F)cc2F)[nH]1 [Compound 289]
5. CCC(=O)CCCCC[C@H](NC(=O)C1CC12CCNCC2)c1nnc(-c2cc3ccccc3nc2OC)o1 (some centres unmarked) [Compound 303]
6. CCC(=O)CCCCC[C@H](NC(=O)[C@H]1CC[C@]2(CC1)OC(=O)c1cccnc12)c1ncc(-c2ccccc2)[nH]1 [Compound 378]

Reply:
[7.49, 7.53, 7.60, 7.20, 7.76, 7.34]

Below is a list of compounds. For each, state its recorded pIC50.
1. CCOc1ncc(-c2cnc([C@H](CCCCCC(=O)CC)NC(=O)[C@H]3CC34CCN(C)CC4)[nH]2)cn1 [Compound 266]
2. CCC(=O)CCCCC[C@H](NC(=O)C1CC12CCOCC2)c1ncc(-c2cc3ccc(C)nc3cc2OC)o1 (single isomer, unassigned) [Compound 410]
3. CCC(=O)CCCCC[C@H](NC(=O)[C@H]1CC12CCN(C)CC2)c1ncc(-c2ccc3cnc(Cl)cc3c2)[nH]1 [Compound 351]
4. CCC(=O)CCCCC[C@H](NC(=O)C1CCC2(CC1)CN(C(C)C)C2)c1ncc(-c2cc3ccccc3nc2OC)[nH]1 [Compound 272]
5. CCC(=O)CCCCC[C@H](NC(=O)[C@H]1CC12CCN(C)CC2)c1ncc(-c2cc3ocnc3cc2F)o1 [Compound 389]

Reply:
6.81
7.76
8.80
8.68
7.67

* * *

Exercise: state measured pIC50 for each of the compounds provided.
EXPERIMENTAL TARGET: HDAC6 (Homo sapiens)
Sequence (Q9UBN7 1-1215): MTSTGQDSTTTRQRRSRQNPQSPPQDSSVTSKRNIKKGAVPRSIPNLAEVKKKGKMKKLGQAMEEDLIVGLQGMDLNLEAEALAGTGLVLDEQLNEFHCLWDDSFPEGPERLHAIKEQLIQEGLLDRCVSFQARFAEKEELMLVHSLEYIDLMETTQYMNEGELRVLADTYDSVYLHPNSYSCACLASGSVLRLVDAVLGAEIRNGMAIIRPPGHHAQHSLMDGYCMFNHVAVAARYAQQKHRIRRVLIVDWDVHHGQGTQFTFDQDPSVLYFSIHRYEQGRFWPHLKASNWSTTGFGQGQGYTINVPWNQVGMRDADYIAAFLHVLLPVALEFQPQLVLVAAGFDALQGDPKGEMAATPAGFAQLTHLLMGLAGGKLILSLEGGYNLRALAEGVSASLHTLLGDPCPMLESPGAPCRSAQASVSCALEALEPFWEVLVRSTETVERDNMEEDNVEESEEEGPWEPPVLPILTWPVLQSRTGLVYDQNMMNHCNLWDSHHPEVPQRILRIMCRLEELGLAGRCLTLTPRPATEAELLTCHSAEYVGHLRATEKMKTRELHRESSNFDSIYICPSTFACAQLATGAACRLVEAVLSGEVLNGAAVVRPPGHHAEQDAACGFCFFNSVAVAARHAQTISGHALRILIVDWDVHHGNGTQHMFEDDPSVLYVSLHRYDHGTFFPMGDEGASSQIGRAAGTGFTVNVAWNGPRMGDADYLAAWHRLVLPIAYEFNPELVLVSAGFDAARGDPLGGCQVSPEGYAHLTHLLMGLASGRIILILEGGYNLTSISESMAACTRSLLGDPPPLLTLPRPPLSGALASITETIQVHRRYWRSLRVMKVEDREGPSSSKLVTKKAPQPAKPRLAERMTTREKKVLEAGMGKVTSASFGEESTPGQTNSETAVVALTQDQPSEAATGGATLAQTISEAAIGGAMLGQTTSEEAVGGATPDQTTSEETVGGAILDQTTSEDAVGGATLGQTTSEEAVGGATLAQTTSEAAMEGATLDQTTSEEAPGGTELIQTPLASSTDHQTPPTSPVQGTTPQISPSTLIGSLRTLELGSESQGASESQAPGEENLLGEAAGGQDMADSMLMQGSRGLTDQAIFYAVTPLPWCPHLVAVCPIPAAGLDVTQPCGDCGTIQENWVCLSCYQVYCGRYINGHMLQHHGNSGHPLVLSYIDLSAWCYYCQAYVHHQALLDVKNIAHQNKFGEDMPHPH
TEST DESCRIPTION: Human HDAC enzyme inhibitor Fluor-de-Lys assay, HDAC6
Type: biochemical
RUN PARAMETERS: HDAC6, Fluor-de-Lys assay
Answers are plain numbers, as −log10 of the molar value.

CCC(=O)CCCCC[C@@H](NC(=O)C1CCC2(CC1)CNC2)c1ncc(-c2ccccc2)[nH]1 | 5.30

Below is a list of compounds. For each, state its recorded pIC50.
1. CCC(=O)CCCCC[C@H](NC(=O)[C@H]1CC12CCN(C)CC2)c1ncc(-c2ccccc2F)[nH]1
2. CCC(=O)CCCCC[C@H](NC(=O)[C@H]1CC12CCN(C)CC2)c1ncc(-c2cc3ccccc3nc2OC)[nH]1 (single isomer, unassigned)
3. CCC(=O)CCCCC[C@H](NC(=O)[C@H]1CC12CCN(C)CC2)c1ncc(-c2cnc(-n3cc(C)cn3)nc2)[nH]1

Reply:
[5.22, 6.80, 4.44]

* * *

EXPERIMENTAL TARGET: HDAC6 (Homo sapiens)
TEST DESCRIPTION: Human HDAC enzyme inhibitor Fluor-de-Lys assay, HDAC6
Type: biochemical
RUN PARAMETERS: HDAC6, Fluor-de-Lys assay
VALUE TYPE: IC50 (nM)
One number for each entry, in nM.

# example entries with known answers
CCC(=O)CCCCC[C@H](NC(=O)[C@H]1CC12CCN(C)CC2)c1ncc(-c2cc3ccncc3cc2OC)o1 | 163
CCC(=O)CCCCC[C@H](NC(=O)[C@@H]1CC12CCN(C)CC2)c1nnc(-c2cc3ccccc3nc2OC)o1 | 636
CCC(=O)CCCCC[C@H](NC(=O)[C@H]1CC12CCN(CC(C)C)CC2)c1ncc(-c2cc3ccccc3nc2OC)[nH]1 | 329
CCC(=O)CCCCC[C@H](NC(=O)[C@H]1CC12CCN(C)CC2)c1ncc(-c2ccnc(N3CCOCC3)c2F)[nH]1 | 2470
CCC(=O)CCCCC[C@H](NC(=O)[C@H]1CC12CCN(CC1CC1)CC2)c1ncc(-c2cc3ccccc3nc2OC)[nH]1 | 189
CCC(=O)CCCCC[C@H](NC(=O)[C@H]1CC12CCN(CC)CC2)c1ncc(-c2ccc3cccnc3c2)[nH]1 | 862
CCC(=O)CCCCC[C@H](NC(=O)C1=NOC2(CCN(C(=O)OC)CC2)C1)c1ncc(-c2ccccc2)[nH]1 | 32300

// next entry
Ask: Form field: IC50 recorded for CCC(=O)CCCCC[C@H](NC(=O)C1CC12CCN(CC)CC2)c1nc(-c2ccc(F)cc2)[nH]c1-c1ccn(C)c1 (some centres unmarked) with HDAC6 (Homo sapiens) (enter value)
Reply: 41700
